Data credit: ChEMBL document CHEMBL2413072

- Test system: IGROV-1
- ASSAY TEXT: Growth inhibition of human IGROV1 cells by sulforhodamine B assay
- Type: functional
- EXPERIMENTAL SETUP: read-out: pTGI (converted)
RESULT TYPE: TGI (µM)
# value in µM; strip the unit string

Entry C/C=C(/C)C(=O)O[C@@H]1CC(C)(C)C[C@H]2C3=CC[C@@H]4[C@@]5(C)CC[C@H](O)C(C)(C)[C@@H]5CC[C@@]4(C)[C@]3(C)CC[C@@]12C(=O)O [Reduced Lantadene A] : TGI on IGROV-1 = 4.68

Entry CC1(C)C[C@@H](O)[C@]2(C(=O)O)CC[C@]3(C)C(=CC[C@@H]4[C@@]5(C)C/C(=C\C=C\c6ccccc6)C(=O)C(C)(C)[C@@H]5CC[C@]43C)[C@@H]2C1 : TGI on IGROV-1 = 14.5

Entry CC(C)=CC(=O)O[C@@H]1CC(C)(C)C[C@H]2C3=CC[C@@H]4[C@@]5(C)CC[C@H](O)C(C)(C)[C@@H]5CC[C@@]4(C)[C@]3(C)CC[C@@]12C(=O)O [Reduced Lantadene B] : TGI on IGROV-1 = 29.5

Entry CC(C)=CC(=O)O[C@@H]1CC(C)(C)C[C@H]2C3=CC[C@@H]4[C@@]5(C)CCC(=O)C(C)(C)[C@@H]5CC[C@@]4(C)[C@]3(C)CC[C@@]12C(=O)O : TGI on IGROV-1 = 38
